# system_tested: equine FcRn (large alpha subunit p51) / equine beta-2-microglobulin complex, biotinylated (equine) (UniProt P30441)
# assay_method_text: SPR (Biacore), pH 6
measurement_kind: pKd
Entry type: numeric. Quantity: pKd, the -log10 of concentration in molar units.

QUERY: Given the entry equine IgG4 A426L (antibody, part only; not given: variable domains, not shown: another chain or arm of the molecule) constant: ASTTAPKVFPLASHSAATSGSTVALGCLVSSYFPEPVTVSWNSGALTSGVHTFPSVLQSSGLYSLSSMVTVPASSLKSQTYICNVAHPASSTKVDKKIVIKECNGGCPAECLQVGPSVFIFPPKPKDVLMISRTPTVTCVVVDVGHDFPDVQFNWYVDGVETHTATTEPKQEQFNSTYRVVSVLPIQHKDWLSGKEFKCKVNNKALPAPVERTISKPTGQPREPQVYVLAPHRDELSKNKVSVTCLVKDFYPTDIDIEWKSNGQPEPETKYSTTPAQLDSDGSYFLYSKLTVETNRWQQGTTFTCLVMHEALHNHYTEKSVSKSPGK , report its measured pKd.
RESULT: 7.76

QUERY: Given the entry equine IgG4 T286H (antibody, part only; not given: variable domains, not shown: another chain or arm of the molecule) constant: ASTTAPKVFPLASHSAATSGSTVALGCLVSSYFPEPVTVSWNSGALTSGVHTFPSVLQSSGLYSLSSMVTVPASSLKSQTYICNVAHPASSTKVDKKIVIKECNGGCPAECLQVGPSVFIFPPKPKDVLMISRTPTVTCVVVDVGHDFPDVQFNWYVDGVETHHATTEPKQEQFNSTYRVVSVLPIQHKDWLSGKEFKCKVNNKALPAPVERTISKPTGQPREPQVYVLAPHRDELSKNKVSVTCLVKDFYPTDIDIEWKSNGQPEPETKYSTTPAQLDSDGSYFLYSKLTVETNRWQQGTTFTCAVMHEALHNHYTEKSVSKSPGK , report its measured pKd.
RESULT: 7.57

QUERY: Given the entry equine IgG4 K311Y (antibody, part only; not given: variable domains, not shown: another chain or arm of the molecule) constant: ASTTAPKVFPLASHSAATSGSTVALGCLVSSYFPEPVTVSWNSGALTSGVHTFPSVLQSSGLYSLSSMVTVPASSLKSQTYICNVAHPASSTKVDKKIVIKECNGGCPAECLQVGPSVFIFPPKPKDVLMISRTPTVTCVVVDVGHDFPDVQFNWYVDGVETHTATTEPKQEQFNSTYRVVSVLPIQHYDWLSGKEFKCKVNNKALPAPVERTISKPTGQPREPQVYVLAPHRDELSKNKVSVTCLVKDFYPTDIDIEWKSNGQPEPETKYSTTPAQLDSDGSYFLYSKLTVETNRWQQGTTFTCAVMHEALHNHYTEKSVSKSPGK , report its measured pKd.
RESULT: 7.67

QUERY: Given the entry equine IgG4 D312P (antibody, part only; not given: Variable domains, not shown: another chain or arm of the molecule) constant: ASTTAPKVFPLASHSAATSGSTVALGCLVSSYFPEPVTVSWNSGALTSGVHTFPSVLQSSGLYSLSSMVTVPASSLKSQTYICNVAHPASSTKVDKKIVIKECNGGCPAECLQVGPSVFIFPPKPKDVLMISRTPTVTCVVVDVGHDFPDVQFNWYVDGVETHTATTEPKQEQFNSTYRVVSVLPIQHKPWLSGKEFKCKVNNKALPAPVERTISKPTGQPREPQVYVLAPHRDELSKNKVSVTCLVKDFYPTDIDIEWKSNGQPEPETKYSTTPAQLDSDGSYFLYSKLTVETNRWQQGTTFTCAVMHEALHNHYTEKSVSKSPGK , report its measured pKd.
RESULT: 7.82

Data provenance: patent US20260070987A1
